test: Pharmacokinetics (PK) study, plasma exposure of PBA after oral dosing of PBA analogues; assay type: in vivo, SD rats; conditions: SD, rat, in vivo, po, 22.5 mg/kg

Compound | Cmax / µM
O=C(CCCc1ccccc1)OC[C@H](OC(=O)CCCc1ccccc1)[C@@H](COC(=O)CCCc1ccccc1)OC(=O)CCCc1ccccc1 | 51.3
